# SYSTEM UNDER TEST: MAL^TIR (Homo sapiens, UniProt P58753)
# Construct: MAL (residues 79–221); 6xHis; made in house; host or cells: E. coli BL21 (DE3)
# Sequence (P58753 79-221): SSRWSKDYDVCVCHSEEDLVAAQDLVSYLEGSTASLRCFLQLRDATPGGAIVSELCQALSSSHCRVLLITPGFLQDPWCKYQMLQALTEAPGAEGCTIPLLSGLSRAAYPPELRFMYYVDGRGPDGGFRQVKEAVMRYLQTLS
# METHOD NOTES: T‐Surf phage library (P8 and P3) selection against MAL^TIR, four rounds, NGS read counts
# Type: binding
# EXPERIMENTAL SETUP: P3 library, 4R selection against MAL, rank before grouping
Use P3_MAL Rank (before) to assign classes; range list: low: < 2000; moderate: ≥ 2000 and < 3000; high: ≥ 3000

Reference set, count: 8
KQWLNAPTAAANLSGW
high
KWFWEKLRYALTYRPAT
high
YAFTSHLYDRLQRSGI
low
KELLHKWKLALTQTPN
high
LKVKLASGAGKSGQT
moderate
RLLKWKEALTAAANLSGW
moderate
NLWKLWTKPGGVRDDR
high
FLSHLHRYLVQRGV
low

(Q) Which category fits this record: KLQEWRDALTAAANLSGW
(A) high

(Q) Which category fits this record: TSHLHHAMRLNKIDTF
(A) high

(Q) Which category fits this record: KERLHQWKLALTQAPI
(A) high

Cited source: paper PMC11714206
